B1: NCF4 (parent)
chain: FGPDSKSSALACTLPTLPAKVYVG

Variants of: B1
assay.text: protein stability index of a GFP-peptide fusion (GPS, HEK-293T) (PSI 1-6); higher = more stable;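 note: lentivirally expressed fusions sorted by FACS into six bins by GFP to DsRed ratio, PSI derived from sequencing read proportions per bin multiplied by bin number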
condition.parameters: c terminus: a fixed tail appended
Threshold check on protein stability index: at or above 2 gives criterion met, strictly below gives criterion not met.

[
  {
    "variant.string": "C12W",
    "qualitative.label": "criterion not met"
  },
  {
    "variant.string": "A9K",
    "qualitative.label": "criterion not met"
  },
  {
    "variant.string": "A19I",
    "qualitative.label": "criterion not met"
  },
  {
    "variant.string": "C12S",
    "qualitative.label": "criterion met"
  },
  {
    "variant.string": "V23Q",
    "qualitative.label": "criterion met"
  },
  {
    "variant.string": "F1W",
    "qualitative.label": "criterion met"
  },
  {
    "variant.string": "F1K",
    "qualitative.label": "criterion met"
  },
  {
    "variant.string": "F1N",
    "qualitative.label": "criterion met"
  },
  {
    "variant.string": "V21L",
    "qualitative.label": "criterion not met"
  },
  {
    "variant.string": "S8G",
    "qualitative.label": "criterion met"
  }
]

Please look at the following variant next.
Exam item: Record "F1E" ; criterion: protein stability index no lower than 2. Met?
Marked response: criterion met
